Assay: Solubility
Assay type: physicochemical
Settings: diethyl ether
Structures can show the parent of a compound that is named as a salt.

{"compound": "N[C@H]1CON(C2(C(=O)O)CCC(=O)O2)C1=O (stereo partly shown) [N-deacetyl TAN-588]", "Solubility in diethyl ether": "Sparingly soluble"}
{"compound": "N[C@H]1CON([C@@]2(C(=O)O)CCC(=O)O2)C1=O [N-deacetyl TAN-588 (B type compound)]", "Solubility in diethyl ether": "Sparingly soluble"}
{"compound": "N[C@H]1CON([C@]2(C(=O)O)CCC(=O)O2)C1=O [N-deacetyl TAN-588 (A type compound)]", "Solubility in diethyl ether": "Sparingly soluble"}
{"compound": "CC(=O)N[C@H]1CON(C2(C(=O)O)CCC(=O)O2)C1=O (stereo partly shown) [TAN-588 sodium salt]", "Solubility in diethyl ether": "Sparingly soluble"}

Source of measurements: patent US4656288A
